- assayDetails: Biochemical Assay: A variety of Ras proteins may be inhibited by compounds of the present invention (e.g., K-Ras, N-Ras, H-Ras, and mutants thereof at positions 12, 13 and 61, such as G12C, G12D, G12V, G12S, G13C, G13D, and Q61L, and others described herein). The purpose of this biochemical assay is to measure the ability of test compounds to covalently label nucleotide-loaded K-Ras isoforms. […] The sample is incubated at 25? C. for a time period of up to 24 hours prior to quenching by the addition of 10 uL of 5% Formic Acid. Quenched samples are centrifuged at 15000 rpm for 15 minutes in a benchtop centrifuge before injecting a 10 uL aliquot onto a reverse phase C4 column and eluting into the mass spectrometer with an increasing acetonitrile gradient in the mobile phase. Analysis of raw data may be carried out using Waters MassLynx MS software, with % bound calculated from the deconvoluted protein peaks for labeled and unlabeled K-Ras.
readoutType: IC50

Example compounds with recorded IC50:
compound	readoutType	result
CCn1c(-c2cccnc2C(C)OC)c2c3cc(ccc31)N1CCO[C@@H](C[C@H](NC(=O)[C@@H](COC3CN(C(=O)C#CC(C)(C)N(C)C)C3)C(C)C)C(=O)N3CCC[C@H](N3)C(=O)OCC(C)(C)C2)C1 (some centres undefined)	IC50	> 10 µM
C=CC(=O)N1CC[C@H](C(=O)N(C)[C@H](C(=O)N[C@H]2Cc3cccc(c3)-c3ccc4c(c3)c(c(-c3cc(C5=CCN(C)CC5)cnc3C(C)OC)n4CC)CC(C)(C)COC(=O)[C@@H]3CCCN(N3)C2=O)C(C)C)C1 (some centres undefined)	IC50	> 10 µM

Need IC50 of CCn1c(-c2cccnc2C(C)OC)c2c3cc(ccc31)-c1cccc(c1)C[C@H](NC(=O)[C@@H](COC1CN(C(=O)C#CC(C)(C)N3CCC3)C1)C(C)C)C(=O)N1CCC[C@H](N1)C(=O)OCC(C)(C)C2 (some centres undefined) , thanks.
> 10 µM

###

- assayDetails: Biochemical Assay: A variety of Ras proteins may be inhibited by compounds of the present invention (e.g., K-Ras, N-Ras, H-Ras, and mutants thereof at positions 12, 13 and 61, such as G12C, G12D, G12V, G12S, G13C, G13D, and Q61L, and others described herein). The purpose of this biochemical assay is to measure the ability of test compounds to covalently label nucleotide-loaded K-Ras isoforms. […] The sample is incubated at 25? C. for a time period of up to 24 hours prior to quenching by the addition of 10 uL of 5% Formic Acid. Quenched samples are centrifuged at 15000 rpm for 15 minutes in a benchtop centrifuge before injecting a 10 uL aliquot onto a reverse phase C4 column and eluting into the mass spectrometer with an increasing acetonitrile gradient in the mobile phase. Analysis of raw data may be carried out using Waters MassLynx MS software, with % bound calculated from the deconvoluted protein peaks for labeled and unlabeled K-Ras.
Measured IC50, listed per entry.

Example compounds with recorded IC50:
compound	IC50
C=CC(=O)N1CC(OCC(C(=O)N[C@H]2Cc3cc(cc(C(F)F)c3)-c3ccc4c(c3)c(c(-c3cccnc3C(C)OC)n4CC(F)(F)F)CC(C)(C)COC(=O)[C@@H]3CCCN(N3)C2=O)C(C)C)C1 (some centres undefined)	> 10 µM
CCn1c(-c2cccnc2C(C)OC)c2c3cc(ccc31)-c1cc(cc(C(F)F)c1)C[C@H](NC(=O)C(COC1CN(C(=O)C#CC(C)(C)N(C)C)C1)C(C)C)C(=O)N1CCC[C@H](N1)C(=O)OCC(C)(C)C2 (some centres undefined)	> 10 µM

Need IC50 of CCn1c(-c2cccnc2C(C)OC)c2c3cc(ccc31)N1CCC[C@@H](C[C@H](NC(=O)[C@@H](COC3CN(C(=O)C#CC(C)(C)N(C)C)C3)C(C)C)C(=O)N3CCC[C@H](N3)C(=O)OCC(C)(C)C2)C1 (some centres undefined) , thanks.
> 10 µM
